Recorded measurements of Activity of 5HT3a with peptide (percentage of the reference compound), one per entry
- subjectOfTest: 5HT3a (Homo sapiens)
- Construct: host or cells: HEK293 or CHO
- Sequence (P46098 whole entry, looked up): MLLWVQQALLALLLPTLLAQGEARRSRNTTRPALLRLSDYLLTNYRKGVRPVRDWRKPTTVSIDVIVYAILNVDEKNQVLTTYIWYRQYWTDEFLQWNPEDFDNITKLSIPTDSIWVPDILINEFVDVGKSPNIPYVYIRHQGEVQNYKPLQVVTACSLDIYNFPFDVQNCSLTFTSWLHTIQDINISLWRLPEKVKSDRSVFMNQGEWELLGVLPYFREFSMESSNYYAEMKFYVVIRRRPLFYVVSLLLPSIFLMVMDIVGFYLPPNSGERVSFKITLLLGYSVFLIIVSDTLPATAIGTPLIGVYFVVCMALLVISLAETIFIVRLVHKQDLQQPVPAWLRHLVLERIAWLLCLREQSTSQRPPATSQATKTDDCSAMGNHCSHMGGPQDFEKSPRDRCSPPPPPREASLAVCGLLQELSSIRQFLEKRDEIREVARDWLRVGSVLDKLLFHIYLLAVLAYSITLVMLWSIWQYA
- protocolDetails: Ion channel panel (IonWorks Barracuda): 5HT3a
- Type: cell-based
Output should be the measured figure followed by the unit it is expressed in.

Worked cases, Activity of 5HT3a with peptide (percentage of the reference compound) given:
Provide measured Activity of 5HT3a with peptide (percentage of the reference compound) value, entry: 16 (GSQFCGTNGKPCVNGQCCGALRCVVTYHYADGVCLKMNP) [compound 16] 103%

// Input: 34 (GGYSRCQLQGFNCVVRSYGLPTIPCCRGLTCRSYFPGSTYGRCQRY) [compound 34] . Output its Activity of 5HT3a with peptide (percentage of the reference compound) only. 97%

Supply reported Activity of 5HT3a with peptide (percentage of the reference compound) belonging to this substance: 17 (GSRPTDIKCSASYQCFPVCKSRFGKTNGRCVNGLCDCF) [compound 17] 85%

Consider the substance 11 (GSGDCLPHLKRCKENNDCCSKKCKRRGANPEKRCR) [compound 11] and give its recorded Activity of 5HT3a with peptide (percentage of the reference compound). 85%

Return value of Activity of 5HT3a with peptide (percentage of the reference compound) for input 15 (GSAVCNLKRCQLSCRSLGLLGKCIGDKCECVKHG) [compound 15] , no commentary. 74%

***
Find the measured Activity of 5HT3a with peptide (percentage of the reference compound) of 22 (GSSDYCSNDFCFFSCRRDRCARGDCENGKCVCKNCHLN) [compound 22] and report it. 95%

Input 18 (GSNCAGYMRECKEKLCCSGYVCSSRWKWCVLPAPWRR) [compound 18] , output reported Activity of 5HT3a with peptide (percentage of the reference compound). 79%

Indicate the recorded Activity of 5HT3a with peptide (percentage of the reference compound) value for this substance: 39 (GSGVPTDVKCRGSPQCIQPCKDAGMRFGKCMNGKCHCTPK) [compound 39] 55%

Identify measured Activity of 5HT3a with peptide (percentage of the reference compound) associated with 30 (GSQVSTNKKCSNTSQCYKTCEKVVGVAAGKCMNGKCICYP) [compound 30] 91%

Check the records and state Activity of 5HT3a with peptide (percentage of the reference compound) for 21 (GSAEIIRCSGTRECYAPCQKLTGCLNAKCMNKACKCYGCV) [compound 21] 91%

Read off the recorded Activity of 5HT3a with peptide (percentage of the reference compound) for 9 (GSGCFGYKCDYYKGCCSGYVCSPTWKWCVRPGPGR) [compound 9] 73%

Kindly indicate its recorded Activity of 5HT3a with peptide (percentage of the reference compound). Item: 3 (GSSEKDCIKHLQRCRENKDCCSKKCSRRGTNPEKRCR) [compound 3] 98%

====

- subjectOfTest: Kv2.1 (Homo sapiens, UniProt Q14721)
- Construct: host or cells: HEK293 or CHO
- Sequence (Q14721 whole entry): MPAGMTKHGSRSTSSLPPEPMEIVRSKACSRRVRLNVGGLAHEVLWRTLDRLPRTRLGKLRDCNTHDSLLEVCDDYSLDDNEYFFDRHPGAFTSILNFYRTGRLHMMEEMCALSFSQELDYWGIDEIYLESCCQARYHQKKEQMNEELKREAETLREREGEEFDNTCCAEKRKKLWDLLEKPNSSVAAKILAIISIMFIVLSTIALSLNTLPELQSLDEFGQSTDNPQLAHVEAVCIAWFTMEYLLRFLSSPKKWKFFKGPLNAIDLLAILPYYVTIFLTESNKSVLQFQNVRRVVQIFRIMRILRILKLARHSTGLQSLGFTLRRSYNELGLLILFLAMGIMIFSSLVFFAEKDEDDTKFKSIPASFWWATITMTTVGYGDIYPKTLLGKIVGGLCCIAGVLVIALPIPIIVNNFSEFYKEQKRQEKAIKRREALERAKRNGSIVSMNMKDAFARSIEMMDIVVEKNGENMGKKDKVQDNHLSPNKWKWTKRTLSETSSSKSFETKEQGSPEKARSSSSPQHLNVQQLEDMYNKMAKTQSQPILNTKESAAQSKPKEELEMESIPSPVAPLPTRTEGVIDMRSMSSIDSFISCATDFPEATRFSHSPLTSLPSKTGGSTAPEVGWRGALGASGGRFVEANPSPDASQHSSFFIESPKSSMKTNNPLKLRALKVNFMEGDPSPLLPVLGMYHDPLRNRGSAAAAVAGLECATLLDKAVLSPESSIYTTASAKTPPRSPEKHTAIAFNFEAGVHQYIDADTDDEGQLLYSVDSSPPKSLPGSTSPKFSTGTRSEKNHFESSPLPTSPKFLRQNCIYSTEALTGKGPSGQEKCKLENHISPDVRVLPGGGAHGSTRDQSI
- protocolDetails: cell-based
- recordedConditions: peptide at 20 μM; 100% = no change, <100% = inhibition
quantityMeasured: Activity of Kv2.1 with peptide (percentage of the reference compound)
Please make sure the unit comes right after the number.

Consider the substance 16 (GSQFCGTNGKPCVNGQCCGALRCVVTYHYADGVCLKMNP) [compound 16] and give its recorded Activity of Kv2.1 with peptide (percentage of the reference compound). 98%

Report Activity of Kv2.1 with peptide (percentage of the reference compound), nothing else, for this substance: 23 (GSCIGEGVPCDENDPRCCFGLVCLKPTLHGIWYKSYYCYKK) [compound 23] 103%

Further cases:
Write down Activity of Kv2.1 with peptide (percentage of the reference compound) measured for item 24 (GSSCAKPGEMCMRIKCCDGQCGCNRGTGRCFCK) [compound 24] 81%

For 34 (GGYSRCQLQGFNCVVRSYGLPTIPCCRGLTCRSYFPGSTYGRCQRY) [compound 34] , write its Activity of Kv2.1 with peptide (percentage of the reference compound). 97%

====

- subjectOfTest: Kv1.1 (Homo sapiens)
- Construct: host or cells: HEK293 or CHO
- Sequence (Q09470 whole entry): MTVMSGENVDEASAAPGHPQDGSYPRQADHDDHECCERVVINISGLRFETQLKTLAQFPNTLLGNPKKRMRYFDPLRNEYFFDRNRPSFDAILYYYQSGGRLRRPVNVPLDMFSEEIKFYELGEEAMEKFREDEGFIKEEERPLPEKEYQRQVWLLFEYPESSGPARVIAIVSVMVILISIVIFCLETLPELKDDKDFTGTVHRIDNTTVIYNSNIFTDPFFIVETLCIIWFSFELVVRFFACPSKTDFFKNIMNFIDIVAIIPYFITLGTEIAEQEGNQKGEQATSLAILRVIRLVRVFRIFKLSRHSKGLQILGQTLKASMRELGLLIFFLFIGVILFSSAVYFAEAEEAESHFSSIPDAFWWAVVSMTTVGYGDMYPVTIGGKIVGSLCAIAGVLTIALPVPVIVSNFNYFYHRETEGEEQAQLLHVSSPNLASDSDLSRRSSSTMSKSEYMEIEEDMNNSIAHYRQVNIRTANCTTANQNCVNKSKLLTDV
- protocolDetails: cell-based
- Format: cell-based
- recordedConditions: peptide at 20 μM; 100% = no change, <100% = inhibition
- Protocol: This example describes a method for assaying ion channel activity in cells. Peptides were screened in duplicate at final concentrations of 20 μM and 200 nM, as determined by amino acid analysis, and diluted into HEPES buffered physiological saline (HBPS). HEK293 or CHO cells from the American Type Culture Collection (ATCC) were transfected with the appropriate ion channel before use. […]
quantityMeasured: Activity of Kv1.1 with peptide (percentage of the reference compound) (%)
Form entry: value (%) — number only.

These solved cases illustrate the format of a correct answer.
Fill in reported Activity of Kv1.1 with peptide (percentage of the reference compound) for this entry: 4 (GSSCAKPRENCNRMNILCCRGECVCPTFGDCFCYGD) [compound 4] 91

Indicate its recorded Activity of Kv1.1 with peptide (percentage of the reference compound); the substance in question is 22 (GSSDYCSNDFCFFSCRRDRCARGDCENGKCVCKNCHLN) [compound 22] 97

Name the recorded Activity of Kv1.1 with peptide (percentage of the reference compound) of the substance listed here: 9 (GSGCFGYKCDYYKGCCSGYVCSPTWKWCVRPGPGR) [compound 9] 97

Answer with the recorded Activity of Kv1.1 with peptide (percentage of the reference compound) of 39 (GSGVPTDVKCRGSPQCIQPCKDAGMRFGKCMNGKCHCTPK) [compound 39] only. 21

Please look at this substance and report its Activity of Kv1.1 with peptide (percentage of the reference compound): 27 (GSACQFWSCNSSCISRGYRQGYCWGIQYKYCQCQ) [compound 27] 89

Continuing:
Answer with the recorded Activity of Kv1.1 with peptide (percentage of the reference compound) of 34 (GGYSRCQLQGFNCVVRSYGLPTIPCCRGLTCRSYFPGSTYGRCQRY) [compound 34] only. 111

Kindly indicate its recorded Activity of Kv1.1 with peptide (percentage of the reference compound). Item: 19 (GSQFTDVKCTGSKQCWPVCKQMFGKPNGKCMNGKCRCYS) [compound 19] 44

Please give the documented Activity of Kv1.1 with peptide (percentage of the reference compound) of 20 (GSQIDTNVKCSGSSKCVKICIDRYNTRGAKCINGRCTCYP) [compound 20] 95

Return reported Activity of Kv1.1 with peptide (percentage of the reference compound). Input substance: 12 (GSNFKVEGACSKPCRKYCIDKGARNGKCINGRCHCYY) [compound 12] 84

====

- subjectOfTest: Kv2.1 (Homo sapiens)
quantityMeasured: pIC50
Just the number, please; pIC50 means minus log10 of the concentration in mol/L.

Input COc1ccc(CCN(C)CCCC(C#N)(c2ccc(OC)c(OC)c2)C(C)C)cc1OC (stereo not shown) [Verapamil, reference compound] , output reported pIC50. 4.11

====

- subjectOfTest: Nav1.7 (Homo sapiens)
- Construct: host or cells: HEK293 or CHO
- Sequence (Q15858 whole entry): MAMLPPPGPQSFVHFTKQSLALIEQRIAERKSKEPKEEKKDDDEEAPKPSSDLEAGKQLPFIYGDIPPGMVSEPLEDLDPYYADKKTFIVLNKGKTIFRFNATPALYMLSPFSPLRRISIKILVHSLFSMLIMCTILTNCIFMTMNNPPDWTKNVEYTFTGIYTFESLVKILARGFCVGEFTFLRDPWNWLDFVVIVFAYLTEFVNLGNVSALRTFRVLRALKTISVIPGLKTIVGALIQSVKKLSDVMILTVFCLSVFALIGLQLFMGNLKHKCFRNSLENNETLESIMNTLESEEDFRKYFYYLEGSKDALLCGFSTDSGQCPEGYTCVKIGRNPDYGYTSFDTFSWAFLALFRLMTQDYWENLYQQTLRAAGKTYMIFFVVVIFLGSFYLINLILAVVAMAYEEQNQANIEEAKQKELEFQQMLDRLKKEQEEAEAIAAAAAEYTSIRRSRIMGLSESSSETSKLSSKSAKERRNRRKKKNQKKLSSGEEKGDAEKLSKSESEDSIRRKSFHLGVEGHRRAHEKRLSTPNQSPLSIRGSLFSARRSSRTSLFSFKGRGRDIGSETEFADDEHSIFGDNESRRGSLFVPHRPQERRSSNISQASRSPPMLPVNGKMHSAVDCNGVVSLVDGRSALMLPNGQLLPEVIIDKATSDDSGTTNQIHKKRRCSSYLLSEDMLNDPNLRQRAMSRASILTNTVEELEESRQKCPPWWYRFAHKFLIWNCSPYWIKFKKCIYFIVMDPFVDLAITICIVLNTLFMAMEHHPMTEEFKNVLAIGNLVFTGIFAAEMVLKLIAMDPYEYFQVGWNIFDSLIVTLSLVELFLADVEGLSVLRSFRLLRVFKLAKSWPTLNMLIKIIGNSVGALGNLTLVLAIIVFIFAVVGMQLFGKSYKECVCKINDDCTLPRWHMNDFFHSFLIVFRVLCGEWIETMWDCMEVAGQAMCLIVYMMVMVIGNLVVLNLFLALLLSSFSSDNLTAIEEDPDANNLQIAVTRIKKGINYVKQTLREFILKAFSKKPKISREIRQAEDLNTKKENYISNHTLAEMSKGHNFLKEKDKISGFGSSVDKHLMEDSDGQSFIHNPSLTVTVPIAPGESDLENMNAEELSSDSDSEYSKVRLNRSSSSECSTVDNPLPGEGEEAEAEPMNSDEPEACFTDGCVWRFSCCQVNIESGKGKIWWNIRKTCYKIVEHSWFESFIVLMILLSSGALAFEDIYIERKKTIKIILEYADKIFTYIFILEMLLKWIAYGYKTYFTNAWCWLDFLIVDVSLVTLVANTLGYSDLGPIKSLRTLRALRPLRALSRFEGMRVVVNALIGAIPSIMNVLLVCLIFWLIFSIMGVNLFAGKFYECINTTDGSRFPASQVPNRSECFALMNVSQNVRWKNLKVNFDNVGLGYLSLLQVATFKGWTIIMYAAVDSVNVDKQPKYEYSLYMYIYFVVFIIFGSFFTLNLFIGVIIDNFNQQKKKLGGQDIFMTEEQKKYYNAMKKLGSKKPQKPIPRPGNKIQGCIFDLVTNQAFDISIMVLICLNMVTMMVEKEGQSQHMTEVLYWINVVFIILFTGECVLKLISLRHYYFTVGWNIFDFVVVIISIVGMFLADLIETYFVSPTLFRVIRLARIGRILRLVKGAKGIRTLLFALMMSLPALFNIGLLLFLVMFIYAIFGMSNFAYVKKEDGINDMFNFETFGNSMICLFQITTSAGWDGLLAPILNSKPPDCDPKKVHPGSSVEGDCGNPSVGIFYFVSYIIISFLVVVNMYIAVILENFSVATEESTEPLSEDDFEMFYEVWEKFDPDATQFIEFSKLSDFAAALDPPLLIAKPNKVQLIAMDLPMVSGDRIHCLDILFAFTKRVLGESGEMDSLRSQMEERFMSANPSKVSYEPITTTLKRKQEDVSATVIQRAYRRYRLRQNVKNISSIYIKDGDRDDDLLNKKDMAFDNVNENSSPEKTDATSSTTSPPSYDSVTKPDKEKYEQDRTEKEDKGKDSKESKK
- protocolDetails: cell-based
- Format: cell-based
- recordedConditions: peptide at 20 μM; first of two Nav1.7 columns (probably TP1); 100% = no change
Heads up, the class ranges for Activity of Nav1.7 with peptide (percentage of the reference compound) are bottom end: < 80%; midrange: ≥ 80% and < 90%; top end: ≥ 90%

Which category fits this record: 21 (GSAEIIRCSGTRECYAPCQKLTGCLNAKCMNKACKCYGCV) [compound 21] top end

Further cases:
Returns: class label. Input: 32 (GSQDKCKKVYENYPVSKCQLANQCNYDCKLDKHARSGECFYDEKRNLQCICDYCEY) [compound 32] midrange

Into which category would you place 18 (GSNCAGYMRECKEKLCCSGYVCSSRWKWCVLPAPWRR) [compound 18] ? bottom end

Kindly identify the class of 6 (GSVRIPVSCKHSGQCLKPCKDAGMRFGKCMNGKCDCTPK) [compound 6] . top end

Band for 9 (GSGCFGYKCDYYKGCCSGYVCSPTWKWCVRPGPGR) [compound 9] ? top end

Category of 38 (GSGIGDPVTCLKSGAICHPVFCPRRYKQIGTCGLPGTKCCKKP) [compound 38] : midrange
